assay: Tissue bio-distribution and tissue pharmacokinetics of DMA; type: in vivo, mouse; conditions: Balb/c, mouse, intestine, iv; i.v. 50 mg/kg, 16 h; read-out: Tissue DMA concentration, Intestine
Parameter: concentration at 16 h

Documented concentration at 16 h of `COc1ccc(-c2nc3cc(-c4nc5cc(N6CCN(C)CC6)ccc5[nH]4)ccc3[nH]2)cc1OC` : 2530 ng/g

* * *

Test: Tissue bio-distribution and tissue pharmacokinetics of DMA
Format: in vivo, mouse
Settings: Balb/c, mouse, liver; Oral 100 mg/kg, 1 h; read-out: Tissue DMA concentration, Liver
Method: Tissue samples were collected from the same mice from which blood samples were collected in both doses of DMA. […] A standard DMA calibration from 1-1000 ng/ml with internal standard (20 ng/ml) was quantified. […] Peak tissue concentration (Cmax) of DMA and time to reach the Cmax (tmax) were read directly from the raw data by visual examination of mean tissue concentration-time profile. […]
Parameter: concentration at 1 h (ng/g)
Give bare numbers, in ng/g.

Documented concentration at 1 h of COc1ccc(-c2nc3cc(-c4nc5cc(N6CCN(C)CC6)ccc5[nH]4)ccc3[nH]2)cc1OC [DMA] : 161

* * *

experiment: Tissue bio-distribution and tissue pharmacokinetics of DMA; type: in vivo, mouse; conditions: Balb/c, mouse, small intestine; 100 mg/kg oral dose; read-out: Cmax, Small Intestine
Parameter: Cmax (ng/g)
Numbers only, in ng/g.

Documented Cmax of `COc1ccc(-c2nc3cc(-c4nc5cc(N6CCN(C)CC6)ccc5[nH]4)ccc3[nH]2)cc1OC` : 106000

* * *

Test: Tissue bio-distribution and tissue pharmacokinetics of DMA
Assay type: in vivo, mouse
Details: Balb/c, mouse, spleen; Oral 100 mg/kg, 2 h; read-out: Tissue DMA concentration, Spleen
Method: Tissue samples were collected from the same mice from which blood samples were collected in both doses of DMA. […] A standard DMA calibration from 1-1000 ng/ml with internal standard (20 ng/ml) was quantified. […] Peak tissue concentration (Cmax) of DMA and time to reach the Cmax (tmax) were read directly from the raw data by visual examination of mean tissue concentration-time profile. […]
Parameter: concentration at 2 h (ng/g)
Numbers only, in ng/g.

Documented concentration at 2 h of COc1ccc(-c2nc3cc(-c4nc5cc(N6CCN(C)CC6)ccc5[nH]4)ccc3[nH]2)cc1OC [DMA] : 1310

* * *

assay: Tissue bio-distribution and tissue pharmacokinetics of DMA; format: in vivo, mouse; details: Balb/c, mouse, intestine; Oral 100 mg/kg, 6 h; read-out: Tissue DMA concentration, Intestine
Parameter: concentration at 6 h (ng/g)
Answers are plain numbers, in ng/g.

Documented concentration at 6 h of `COc1ccc(-c2nc3cc(-c4nc5cc(N6CCN(C)CC6)ccc5[nH]4)ccc3[nH]2)cc1OC` : 28700

* * *

experiment: Plasma pharmacokinetics of DMA; type: in vivo, mouse; conditions: Balb/c, mouse, plasma; 100 mg/kg oral; read-out: Area under curve (AUC), plasma
Parameter: AUC (ng·h/mL)
Numbers only, in ng·h/mL.

Documented AUC of COc1ccc(-c2nc3cc(-c4nc5cc(N6CCN(C)CC6)ccc5[nH]4)ccc3[nH]2)cc1OC [DMA] : 669

* * *

Assay: Tissue bio-distribution and tissue pharmacokinetics of DMA
Type: in vivo, mouse
Conditions: Balb/c, mouse, lung, iv; i.v. 50 mg/kg, 4 h; read-out: Tissue DMA concentration, Lung
Protocol: Tissue samples were collected from the same mice from which blood samples were collected in both doses of DMA. […] A standard DMA calibration from 1-1000 ng/ml with internal standard (20 ng/ml) was quantified. […] Peak tissue concentration (Cmax) of DMA and time to reach the Cmax (tmax) were read directly from the raw data by visual examination of mean tissue concentration-time profile. […]
Parameter: concentration at 4 h (ng/g)
Give bare numbers, in ng/g.

Documented concentration at 4 h of `COc1ccc(-c2nc3cc(-c4nc5cc(N6CCN(C)CC6)ccc5[nH]4)ccc3[nH]2)cc1OC` : 1770

* * *

assay: Tissue bio-distribution and tissue pharmacokinetics of DMA; type: in vivo, mouse; details: Balb/c, mouse, spleen, iv; i.v. 50 mg/kg, 2 h; read-out: Tissue DMA concentration, Spleen
Parameter: concentration at 2 h

Documented concentration at 2 h of `COc1ccc(-c2nc3cc(-c4nc5cc(N6CCN(C)CC6)ccc5[nH]4)ccc3[nH]2)cc1OC` : 6450 ng/g

* * *

assay: Tissue bio-distribution and tissue pharmacokinetics of DMA; type: in vivo, mouse; details: Balb/c, mouse, spleen; 100 mg/kg oral dose; read-out: Cmax, Spleen
Parameter: Cmax
The reply should read as a number followed by its unit.

Documented Cmax of `COc1ccc(-c2nc3cc(-c4nc5cc(N6CCN(C)CC6)ccc5[nH]4)ccc3[nH]2)cc1OC` : 1310 ng/g

* * *

assay: Tissue bio-distribution and tissue pharmacokinetics of DMA; format: in vivo, mouse; conditions: Balb/c, mouse, kidney; Oral 100 mg/kg, 6 h; read-out: Tissue DMA concentration, Kidney
Parameter: concentration at 6 h
The reply should read as a number followed by its unit.

Documented concentration at 6 h of `COc1ccc(-c2nc3cc(-c4nc5cc(N6CCN(C)CC6)ccc5[nH]4)ccc3[nH]2)cc1OC` : 643 ng/g

* * *

experiment: Tissue bio-distribution and tissue pharmacokinetics of DMA; format: in vivo, mouse; conditions: Balb/c, mouse, intestine; Oral 100 mg/kg, 1 h; read-out: Tissue DMA concentration, Intestine
Parameter: concentration at 1 h (ng/g)
Answers are plain numbers, in ng/g.

Documented concentration at 1 h of `COc1ccc(-c2nc3cc(-c4nc5cc(N6CCN(C)CC6)ccc5[nH]4)ccc3[nH]2)cc1OC` : 675

* * *

assay: Tissue bio-distribution and tissue pharmacokinetics of DMA; format: in vivo, mouse; settings: Balb/c, mouse, liver, iv; i.v. 50 mg/kg, 16 h; read-out: Tissue DMA concentration, Liver
Parameter: concentration at 16 h (ng/g)
Give bare numbers, in ng/g.

Documented concentration at 16 h of `COc1ccc(-c2nc3cc(-c4nc5cc(N6CCN(C)CC6)ccc5[nH]4)ccc3[nH]2)cc1OC` : 22200

* * *

assay: Tissue bio-distribution and tissue pharmacokinetics of DMA; type: in vivo, mouse; settings: Balb/c, mouse, liver, iv; i.v. 50 mg/kg, 6 h; read-out: Tissue DMA concentration, Liver
Parameter: concentration at 6 h (ng/g)
Answers are plain numbers, in ng/g.

Documented concentration at 6 h of COc1ccc(-c2nc3cc(-c4nc5cc(N6CCN(C)CC6)ccc5[nH]4)ccc3[nH]2)cc1OC [DMA] : 40100

* * *

Experiment: Tissue bio-distribution and tissue pharmacokinetics of DMA
Format: in vivo, mouse
Settings: Balb/c, mouse, intestine, iv; i.v. 50 mg/kg, 6 h; read-out: Tissue DMA concentration, Intestine
Experimental: Tissue samples were collected from the same mice from which blood samples were collected in both doses of DMA. […] A standard DMA calibration from 1-1000 ng/ml with internal standard (20 ng/ml) was quantified. […] Peak tissue concentration (Cmax) of DMA and time to reach the Cmax (tmax) were read directly from the raw data by visual examination of mean tissue concentration-time profile. […]
Parameter: concentration at 6 h
The reply should read as a number followed by its unit.

Documented concentration at 6 h of COc1ccc(-c2nc3cc(-c4nc5cc(N6CCN(C)CC6)ccc5[nH]4)ccc3[nH]2)cc1OC [DMA] : 29700 ng/g

* * *

experiment: Tissue bio-distribution and tissue pharmacokinetics of DMA; format: in vivo, mouse; settings: Balb/c, mouse, kidney, iv; i.v. 50 mg/kg, 2 h; read-out: Tissue DMA concentration, Kidney
Parameter: concentration at 2 h (ng/g)
Numbers only, in ng/g.

Documented concentration at 2 h of `COc1ccc(-c2nc3cc(-c4nc5cc(N6CCN(C)CC6)ccc5[nH]4)ccc3[nH]2)cc1OC` : 8370

* * *

test: Tissue bio-distribution and tissue pharmacokinetics of DMA; assay type: in vivo, mouse; conditions: Balb/c, mouse, small intestine; 100 mg/kg oral dose; read-out: Half life, Small Intestine (converted)
Parameter: half-life (h)
One number for each entry, in h.

Documented half-life of `COc1ccc(-c2nc3cc(-c4nc5cc(N6CCN(C)CC6)ccc5[nH]4)ccc3[nH]2)cc1OC` : 1.9

* * *

assay: Tissue bio-distribution and tissue pharmacokinetics of DMA; format: in vivo, mouse; conditions: Balb/c, mouse, intestine; Oral 100 mg/kg, 24 h; read-out: Tissue DMA concentration, Intestine
Parameter: concentration at 24 h (ng/g)
One number for each entry, in ng/g.

Documented concentration at 24 h of COc1ccc(-c2nc3cc(-c4nc5cc(N6CCN(C)CC6)ccc5[nH]4)ccc3[nH]2)cc1OC [DMA] : 410

* * *

test: Tissue bio-distribution and tissue pharmacokinetics of DMA; type: in vivo, mouse; conditions: Balb/c, mouse, lung; 100 mg/kg oral, at 4 h; read-out: Concentration reached in lung
Parameter: concentration at 4 h (ng/g)
One number for each entry, in ng/g.

Documented concentration at 4 h of COc1ccc(-c2nc3cc(-c4nc5cc(N6CCN(C)CC6)ccc5[nH]4)ccc3[nH]2)cc1OC [DMA] : 1000
